- Test system: hypothermia induced by the injection of apomorphine
- assayProcedure: Apomorphine hypothermia antagonism test
- Assay type: in vivo, mice
- reportedConditions: Mus musculus, Table 5, dimethylamino compounds; 10 mg./kg.; Pre-30 min.; mice; read-out: Percent Antagonism Apomorphine
testReadout: inhibition in vivo at 10 mg/kg (%)
# value in %; strip the unit string

Some solved entries appear below for comparison.
| compound | u | inhibition in vivo at 10 mg/kg |
| --- | --- | --- |
| CCOc1ccccc1OC(CCN(C)C)c1ccccc1.O=C(O)C(=O)O (stereo not shown) [o-phenetyl, oxalate] | % | 76 |
| CN(C)CCC(Oc1ccccc1Cl)c1ccccc1.O=C(O)/C=C\C(=O)O (stereo not shown) [o-chlorophenyl, maleate] | % | 57 |

Log: hypothermia induced by the injection of apomorphine, compound CN(C)CCC(Oc1ccc(F)cc1)c1ccccc1 (stereo not shown) , inhibition in vivo at 10 mg/kg = 116

Bench note, hypothermia induced by the injection of apomorphine: CN(C)CCC(Oc1ccc(Cl)cc1)c1ccccc1 (stereo not shown) , inhibition in vivo at 10 mg/kg reads 85

Field inhibition in vivo at 10 mg/kg (hypothermia induced by the injection of apomorphine), entry CN(C)CCC(Oc1ccccc1C(F)(F)F)c1ccccc1.Cc1ccc(S(=O)(=O)O)cc1 (stereo not shown) : 55

Readout inhibition in vivo at 10 mg/kg for CN(C)CCC(Oc1ccccc1)c1ccccc1 (stereo not shown) , test system hypothermia induced by the injection of apomorphine, was 54

Form field inhibition in vivo at 10 mg/kg for item CNCCC(Oc1cccc(OC)c1)c1ccccc1.O=C(O)C(=O)O (stereo not shown) [m-anisyl, oxalate] on hypothermia induced by the injection of apomorphine: -5

// compound CCc1ccccc1OC(CCN(C)C)c1ccccc1.O=C(O)C(=O)O (stereo not shown) [o-ethylphenyl, oxalate] , assay hypothermia induced by the injection of apomorphine, inhibition in vivo at 10 mg/kg value: 74

Summary: CN(C)CCC(Oc1cccc2ccccc12)c1ccccc1.O=C(O)/C=C\C(=O)O (stereo not drawn) [α-naphthyl, maleate] , hypothermia induced by the injection of apomorphine, inhibition in vivo at 10 mg/kg = -7

CN(C)CCC(Oc1ccc(C(F)(F)F)cc1)c1ccccc1 (stereo not shown) on hypothermia induced by the injection of apomorphine gives inhibition in vivo at 10 mg/kg = 24

Considering CN(C)CCC(Oc1ccccc1Br)c1ccccc1.O=C(O)C(=O)O (stereo not shown) [o-bromophenyl, oxalate] , its inhibition in vivo at 10 mg/kg with hypothermia induced by the injection of apomorphine was recorded as 47

Response field inhibition in vivo at 10 mg/kg (hypothermia induced by the injection of apomorphine) for item CN(C)CCC(Oc1cccc(Cl)c1)c1ccccc1 (stereo not shown) : 66

Form field, inhibition in vivo at 10 mg/kg with hypothermia induced by the injection of apomorphine, item COc1ccccc1OC(CCN(C)C)c1ccccc1 (stereo not shown) : 61

hypothermia induced by the injection of apomorphine inhibition in vivo at 10 mg/kg of COc1ccc(OC(CCN(C)C)c2ccccc2)cc1 (stereo not shown) is 25

Reported inhibition in vivo at 10 mg/kg (hypothermia induced by the injection of apomorphine) for entry Cc1ccccc1OC(CCN(C)C)c1ccccc1 (stereo not shown) is 94

So the reported inhibition in vivo at 10 mg/kg for CN(C)CCC(Oc1ccccc1F)c1ccccc1 (stereo not shown) , on hypothermia induced by the injection of apomorphine, turned out to be 31

====

- Test system: hypothermia induced by the injection of reserpine
- assayProcedure: Reserpine hypothermia reversal test
- Type: in vivo, mice
- reportedConditions: Mus musculus, ip, 1 h, Table 5, dimethylamino compounds; 3 mg./kg. intraperitoneally; Post-60 min.; mice; read-out: Percent Antagonism Reserpine
Structures can show the parent of a compound that is named as a salt.
Classification field: enter label 1 for inhibition in vivo at 3 mg/kg values not below 20%, label 0 for values below it.

| compound | qualitativeLabel |
| --- | --- |
| CN(C)CCC(Oc1ccc(F)cc1F)c1ccccc1 (stereo not shown) [2,4-difluorophenyl] | label 0 |
| CCOc1ccccc1OC(CCN(C)C)c1ccccc1.O=C(O)C(=O)O (stereo not shown) [o-phenetyl, oxalate] | label 0 |
| CN(C)CCC(Oc1cccc2ccccc12)c1ccccc1.O=C(O)/C=C\C(=O)O (stereo not drawn) [α-naphthyl, maleate] | label 0 |
| CC(C)c1ccccc1OC(CCN(C)C)c1ccccc1 (stereo not shown) [o-isopropylphenyl, oxalate] | label 1 |

Qu. Exam item: decide whether the reported inhibition in vivo at 3 mg/kg for CN(C)CCC(Oc1ccc(F)cc1)c1ccccc1 (stereo not shown) [p-fluorophenyl] is at least 20%.
Ans. label 1

====

Below, each entry is listed with its recorded Concentration that blocks 50% of amine uptake, Norepinephrine.
- Test system: norepinephrine uptake by synaptosomes from rat brain
- assayProcedure: In vitro blockade of norepinephrine uptake by synaptosomes from rat brain
- Type: biochemical
- reportedConditions: Table 1, scaffold drawing 3; norepinephrine 0.48 μM
Structures can show the parent of a compound that is named as a salt.
State the answer as a number, implicitly in mcq./ml..

The following molecules have reported results that may help.
| molecule | u | measuredValue |
| --- | --- | --- |
| Cc1cccc(OC(CCN(C)C)c2ccccc2)c1.O=C(O)C(=O)O (stereo not drawn) | mcq./ml. | 12 |
| CN(C)CCC(Oc1ccccc1C(F)(F)F)c1ccccc1.Cc1ccc(S(=O)(=O)O)cc1 (stereo not drawn) | mcq./ml. | 70 |
| CCOc1ccccc1OC(CCN(C)C)c1ccccc1.O=C(O)C(=O)O (stereo not drawn) | mcq./ml. | 3 |
| CN(C)CCC(Oc1ccccc1)c1ccccc1 (stereo not drawn) | mcq./ml. | 1 |

Briefly, Concentration that blocks 50% of amine uptake, Norepinephrine measured for CC(C)c1ccccc1OC(CCN(C)C)c1ccccc1 (stereo not drawn) [o-isopropylphenyl, oxalate] : 1.5

====

- Tested on: hypothermia induced by the injection of reserpine
- assayProcedure: Reserpine hypothermia reversal test
- Format: in vivo, mice
- reportedConditions: Mus musculus, ip, 1 h, Table 5, dimethylamino compounds; 10 mg./kg. intraperitoneally; Post-60 min.; mice; read-out: Percent Antagonism Reserpine
- Method: The apomorphine hypothermia antagonism test is carried out as follows: mice are injected with a dose of apomorphine known to reduce body temperature approximately 4° C. The compound under test is injected 1/2 hour before the injection of the apomorphine and the temperatures measured 1/2 hour after injection. The degree of antagonism is expressed as a percent reduction (as compared with controls) of the temperature decrease produced by the injection of the apomorphine. […]
Where a name gives a salt, the structure may show the parent alone.
Please use YES whenever inhibition in vivo at 10 mg/kg is not below 20%, and NO whenever it is.

Check out these entries, answers already filled in.
| compound | qualitativeLabel |
| --- | --- |
| CNCCC(Oc1cccc(OC)c1)c1ccccc1.O=C(O)C(=O)O (centres unmarked) [m-anisyl, oxalate] | NO |
| CN(C)CCC(Oc1ccccc1)c1ccccc1 (centres unmarked) [phenyl] | YES |
| CN(C)CCC(Oc1ccccc1Br)c1ccccc1.O=C(O)C(=O)O (centres unmarked) [o-bromophenyl, oxalate] | YES |
| CC(C)c1ccccc1OC(CCN(C)C)c1ccccc1 (centres unmarked) [o-isopropylphenyl, oxalate] | YES |
| CN(C)CCC(Oc1ccc(F)cc1F)c1ccccc1 (centres unmarked) [2,4-difluorophenyl] | YES |

Qu. Determine whether this compound has inhibition in vivo at 10 mg/kg no lower than 20%: CCc1ccccc1OC(CCN(C)C)c1ccccc1.O=C(O)C(=O)O (centres unmarked) [o-ethylphenyl, oxalate]
Ans. YES

Qu. Can CCOc1ccccc1OC(CCN(C)C)c1ccccc1.O=C(O)C(=O)O (centres unmarked) [o-phenetyl, oxalate] be said to have inhibition in vivo at 10 mg/kg at or above 20%?
Ans. YES

Qu. hey, is inhibition in vivo at 10 mg/kg for this one >= 20%? CN(C)CCC(Oc1ccccc1Cl)c1ccccc1.O=C(O)/C=C\C(=O)O (centres unmarked) [o-chlorophenyl, maleate]
Ans. YES

Qu. Tell me whether inhibition in vivo at 10 mg/kg is at least 20% here: CN(C)CCC(Oc1cccc2ccccc12)c1ccccc1.O=C(O)/C=C\C(=O)O (stereo not drawn) [α-naphthyl, maleate]
Ans. NO

Qu. Kindly determine if inhibition in vivo at 10 mg/kg recorded for CN(C)CCC(Oc1ccc(F)cc1)c1ccccc1 (centres unmarked) [p-fluorophenyl] is above or exactly 20%.
Ans. YES

Qu. Hello, I need to know if CN(C)CCC(Oc1ccccc1C(F)(F)F)c1ccccc1.Cc1ccc(S(=O)(=O)O)cc1 (centres unmarked) [o-trifluoromethylphenyl] has measured inhibition in vivo at 10 mg/kg not below 20%. Thanks!
Ans. NO

====

- Tested on: hypothermia induced by the injection of apomorphine
- assayProcedure: Apomorphine hypothermia antagonism test
- Type: in vivo, mice
- reportedConditions: Mus musculus, Table 5, dimethylamino compounds; 3 mg./kg.; Pre-30 min.; mice; read-out: Percent Antagonism Apomorphine
# inhibition in vivo at 3 mg/kg annotations
Could you give me the number in %? Just the number is fine.

Previously resolved entries follow.
| compound | inhibition in vivo at 3 mg/kg [%] |
| --- | --- |
| CCOc1ccccc1OC(CCN(C)C)c1ccccc1.O=C(O)C(=O)O (centres unmarked) [o-phenetyl, oxalate] | 13 |
| CN(C)CCC(Oc1cccc(Cl)c1)c1ccccc1 (centres unmarked) [m-chlorophenyl] | 13 |
| CN(C)CCC(Oc1ccccc1F)c1ccccc1 (centres unmarked) [o-fluorophenyl] | 11 |
| CN(C)CCC(Oc1ccccc1Br)c1ccccc1.O=C(O)C(=O)O (centres unmarked) [o-bromophenyl, oxalate] | 40 |

// inhibition in vivo at 3 mg/kg lookup, compound = Cc1ccccc1OC(CCN(C)C)c1ccccc1 (centres unmarked) [o-tolyl] , result: 11

// inhibition in vivo at 3 mg/kg lookup, compound = CN(C)CCC(Oc1ccccc1Cl)c1ccccc1.O=C(O)/C=C\C(=O)O (centres unmarked) [o-chlorophenyl, maleate] , result: -17

inhibition in vivo at 3 mg/kg in this record for CNCCC(Oc1cccc(OC)c1)c1ccccc1.O=C(O)C(=O)O (centres unmarked) [m-anisyl, oxalate] : -7

Entry under test: CN(C)CCC(Oc1ccccc1C(F)(F)F)c1ccccc1.Cc1ccc(S(=O)(=O)O)cc1 (centres unmarked) [o-trifluoromethylphenyl] . Its inhibition in vivo at 3 mg/kg was 32

Please fill in: inhibition in vivo at 3 mg/kg reported for CN(C)CCC(Oc1ccccc1)c1ccccc1 (centres unmarked) [phenyl] = 3
